Can you tell me pKi for the items I'm about to list?
measured target: MDMX (Homo sapiens, UniProt O15151)
Sequence (O15151 1-125): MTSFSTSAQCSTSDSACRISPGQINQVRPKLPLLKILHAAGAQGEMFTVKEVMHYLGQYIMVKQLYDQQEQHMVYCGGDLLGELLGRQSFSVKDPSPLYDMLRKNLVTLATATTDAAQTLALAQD
procedure summary: Competitive fluorescence polarization assay for MDMX
Format: binding
test conditions: competitive FP assay, read-out: Ki (MDMX)
pKi: −log10 of the molar value. Where a SMILES comes first, the peptide text is derived from it. Bridges are numbered along the chain shown (N, C = ends). [ ]: non-standard residue; d: D form. R8 = C=CCCCCCC[C@@](C)(N)C(=O)O; hLeu = CC(C)CC[C@H](N)C(=O)O; S5 = C=CCCC[C@](C)(N)C(=O)O; Nle = CCCC[C@H](N)C(=O)O; Aib = CC(C)(N)C(=O)O

Q: I'd like to know its pKi. The compound in question is CC(=O)N[C@@H](CCC(=O)O)C(=O)N[C@H](C(=O)N[C@@H](Cc1ccccc1)C(=O)N[C@]1(C)CCCCCCC=CCCC[C@@](C)(C(=O)N[C@@H](CO)C(=O)N[C@@H](CO)C(=O)N[C@H](C)C(N)=O)NC(=O)[C@H](CC(C)C)NC(=O)[C@H](CCC(N)=O)NC(=O)[C@H](C)NC(=O)[C@H](Cc2c[nH]c3ccccc23)NC(=O)[C@H](Cc2ccc(O)cc2)NC(=O)[C@H](C(C)C)NC1=O)[C@@H](C)O [compound 134] (Ac-ETF[R8]VYWAQL[S5]SS[dA]-NH2; staple 4-11)
A: 7.00 to 8.00

Q: I'd like to know its pKi. The compound in question is CCCC[C@H](NC(=O)[C@H](C)NC(=O)[C@H](C)NC(=O)[C@]1(C)CCCC=CCCCCCC[C@@](C)(NC(=O)[C@H](Cc2ccccc2)NC(=O)[C@H](C)NC(=O)[C@H](C)NC(C)=O)C(=O)N[C@@H](CCC(=O)O)C(=O)N[C@@H](Cc2ccc(O)cc2)C(=O)N[C@@H](Cc2c[nH]c3ccccc23)C(=O)N[C@@H](C)C(=O)N[C@@H](CCC(N)=O)C(=O)N[C@@H](CC(C)C)C(=O)N1)C(=O)N[C@@H](C)C(N)=O [compound 371] (Ac-AAF[R8]EYWAQL[S5]AA[Nle]A-NH2; staple 4-11)
A: 7.00 to 8.00

Q: I'd like to know its pKi. The compound in question is CC(=O)N[C@@H](CC(C)C)C(=O)N[C@H](C(=O)N[C@@H](Cc1ccccc1)C(=O)N[C@]1(C)CCCCCCC=CCCC[C@@](C)(C(=O)N[C@@H](Cc2c[nH]cn2)C(=O)NC(C)(C)C(=O)N[C@@H](CCC(C)C)C(=O)N[C@H](C(N)=O)C(C)C)NC(=O)[C@H](CC(C)C)NC(=O)[C@H](CCC(N)=O)NC(=O)[C@H](C)NC(=O)[C@H](Cc2c[nH]c3ccccc23)NC(=O)[C@H](Cc2ccc(O)cc2)NC(=O)[C@H](C)NC1=O)[C@@H](C)O [compound 49] (Ac-LTF[R8]AYWAQL[S5]H[Aib][hLeu]V-NH2; staple 4-11)
A: 7.00 to 8.00

Q: I'd like to know its pKi. The compound in question is CC(=O)N[C@@H](CC(C)C)C(=O)N[C@H](C(=O)N[C@@H](Cc1ccccc1)C(=O)N[C@]1(C)CCCCCCC=CCCC[C@@](C)(C(=O)N[C@@H](C)C(=O)N[C@@H](C)C(=O)N[C@H](C(=O)N[C@H](C)C(N)=O)C(C)C)NC(=O)[C@H](CC(C)C)NC(=O)[C@H](CCC(N)=O)NC(=O)[C@H](C)NC(=O)[C@H](Cc2c[nH]c3ccccc23)NC(=O)[C@H](Cc2ccc(O)cc2)NC(=O)[C@H](C)NC1=O)[C@@H](C)O (single isomer, unassigned)
A: 7.00 to 8.00

----------
measured target: MDM2 (Homo sapiens)
Sequence (Q00987 1-125): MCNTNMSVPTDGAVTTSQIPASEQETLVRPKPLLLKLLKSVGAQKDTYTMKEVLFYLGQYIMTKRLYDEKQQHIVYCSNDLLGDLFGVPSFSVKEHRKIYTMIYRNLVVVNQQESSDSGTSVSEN
procedure summary: Competitive fluorescence polarization assay for MDM2
Assay type: binding
test conditions: competitive FP assay, MDM2; read-out: IC50 (MDM2)
Can you tell me IC50 for the items I'm about to list?

Q: I'd like to know its IC50. The molecule in question is CC[C@H](C)[C@H](NC(C)=O)C(=O)N[C@H](C(=O)N[C@@H](Cc1ccccc1)C(=O)N[C@]1(C)CCCCCCC=CCCC[C@@](C)(C(=O)N[C@@H](C)C(=O)N[C@@H](C)C(=O)N[C@H](C(=O)N[C@H](C)C(N)=O)[C@@H](C)CC)NC(=O)[C@H](CC(C)C)NC(=O)[C@H](CCC(N)=O)NC(=O)[C@H](C)NC(=O)[C@H](Cc2c[nH]c3ccccc23)NC(=O)[C@H](Cc2c[nH]cn2)NC(=O)[C@H](CCC(=O)O)NC1=O)[C@@H](C)O (single isomer, unassigned)
A: < 10 nM

Q: I'd like to know its IC50. The molecule in question is C=CCCCCCC[C@@](C)(NC(=O)[C@H](Cc1ccccc1)NC(=O)[C@@H](NC(=O)[C@H](CC(C)C)NC(C)=O)[C@@H](C)O)C(=O)N[C@@H](C)C(=O)N[C@@H](Cc1ccc(O)cc1)C(=O)N[C@@H](Cc1c[nH]c2ccccc12)C(=O)N[C@@H](C)C(=O)N[C@@H](CCC(N)=O)C(=O)N[C@@H](CC(C)C)C(=O)N[C@@](C)(CCCC=C)C(=O)N[C@@H](C)C(=O)N[C@@H](C)C(=O)N[C@@H](CCCC)C(=O)N[C@@H](C)C(N)=O
A: 100 to 1000 nM

----------
Tested on: SJSA-1 cells
procedure summary: Cell lysis by peptidomimetic macrocycles (LDH release)
Format: cell-based
test conditions: 6.25 uM, 1 h at 37C
Where a SMILES comes first, the peptide text is derived from it. Bridges are numbered along the chain shown (N, C = ends). [ ]: non-standard residue; d: D form. R8 = C=CCCCCCC[C@@](C)(N)C(=O)O; hLeu = CC(C)CC[C@H](N)C(=O)O; S5 = C=CCCC[C@](C)(N)C(=O)O; Nle = CCCC[C@H](N)C(=O)O
readout label: 6.25 uM % Lysed cells (1 h LDH) (%)
Write it as a number; the unit % goes unstated.

Q: I'd like to know its 6.25 uM % Lysed cells (1 h LDH). The molecule in question is CC(=O)N[C@@H](C)C(=O)N[C@@H](CC(C)C)C(=O)N[C@H](C(=O)N[C@@H](Cc1ccccc1)C(=O)N[C@]1(C)CCCCCCC=CCCC[C@@](C)(C(=O)N[C@@H](CO)C(=O)N[C@@H](C)C(=O)N[C@@H](C)C(=O)N[C@H](C)C(N)=O)NC(=O)[C@H](CC2CCC2)NC(=O)[C@H](CCC(N)=O)NC(=O)[C@H](C)NC(=O)[C@H](Cc2c[nH]c3ccccc23)NC(=O)[C@H](Cc2ccc(O)cc2)NC(=O)[C@H](CCC(=O)O)NC1=O)[C@@H](C)O (single isomer, unassigned)
A: 0

Q: I'd like to know its 6.25 uM % Lysed cells (1 h LDH). The molecule in question is CCCC[C@H](NC(=O)[C@H](C)NC(=O)[C@H](CCC(N)=O)NC(=O)[C@H](Cc1c[nH]cn1)NC(=O)[C@]1(C)CCCC=CCCCCCC[C@@](C)(NC(=O)[C@H](Cc2ccccc2)NC(C)=O)C(=O)N[C@@H](C)C(=O)N[C@@H](Cc2ccc(O)cc2)C(=O)N[C@@H](Cc2c[nH]c3ccccc23)C(=O)N[C@@H](CO)C(=O)N[C@@H](C)C(=O)N[C@@H](CC(C)C)C(=O)N1)C(N)=O [compound 39] (Ac-F[R8]AYWSAL[S5]HQA[Nle]-NH2; staple 2-9)
A: 0

Q: I'd like to know its 6.25 uM % Lysed cells (1 h LDH). The molecule in question is CC(=O)N[C@@H](CC(C)C)C(=O)N[C@H](C(=O)N[C@@H](Cc1ccccc1)C(=O)N[C@]1(C)CCCCCCC=CCCC[C@@](C)(C(=O)N[C@@H](CO)C(=O)N[C@@H](C)C(=O)N[C@@H](C)C(N)=O)NC(=O)[C@H](CC2CCC2)NC(=O)[C@H](CCC(N)=O)NC(=O)[C@H](C)NC(=O)[C@H](Cc2c[nH]c3ccccc23)NC(=O)[C@H](Cc2ccc(O)cc2)NC(=O)[C@H](CCC(=O)O)NC1=O)[C@@H](C)O (single isomer, unassigned)
A: 4

Q: I'd like to know its 6.25 uM % Lysed cells (1 h LDH). The molecule in question is CC(=O)N[C@@H](CC(C)C)C(=O)N[C@H](C(=O)N[C@@H](Cc1ccccc1)C(=O)N[C@]1(C)CCCCCCC=CCCC[C@@](C)(C(=O)N[C@@H](C)C(=O)N[C@@H](C)C(=O)N[C@@H](C)C(=O)N[C@@H](C)C(=O)N[C@@H](C)C(=O)N[C@@H](C)C(=O)N[C@H](C)C(N)=O)NC(=O)[C@H](CC(C)C)NC(=O)[C@H](CCC(N)=O)NC(=O)[C@H](C)NC(=O)[C@H](Cc2c[nH]c3ccccc23)NC(=O)[C@H](Cc2ccc(O)cc2)NC(=O)[C@H](CCC(=O)O)NC1=O)[C@@H](C)O (single isomer, unassigned)
A: 0

Q: I'd like to know its 6.25 uM % Lysed cells (1 h LDH). The molecule in question is CC[C@H](C)[C@H](NC(=O)[C@H](C)NC(=O)[C@H](C)NC(=O)[C@]1(C)CCCC=CCCCCCC[C@@](C)(NC(=O)[C@H](Cc2ccccc2)NC(=O)[C@@H](NC(=O)[C@H](CC(C)C)NC(C)=O)[C@@H](C)O)C(=O)N[C@@H](C)C(=O)N[C@@H](Cc2ccc(O)cc2)C(=O)N[C@@H](Cc2c[nH]c3ccccc23)C(=O)N[C@@H](C)C(=O)N[C@@H](C)C(=O)N[C@@H](CC(C)C)C(=O)N1)C(=O)N[C@H](C)C(N)=O (single isomer, unassigned)
A: 0

Q: I'd like to know its 6.25 uM % Lysed cells (1 h LDH). The molecule in question is CC(=O)N[C@@H](CC(C)C)C(=O)N[C@H](C(=O)N[C@@H](Cc1ccccc1)C(=O)N[C@]1(C)CCCCCCC=CCCC[C@@](C)(C(=O)N[C@@H](CO)C(=O)N[C@H](C(=O)NCC(N)=O)C(C)C)NC(=O)[C@H](CC(C)C)NC(=O)[C@H](CCC(N)=O)NC(=O)[C@H](C)NC(=O)[C@H](Cc2c[nH]c3ccccc23)NC(=O)[C@H](Cc2ccc(O)cc2)NC(=O)[C@H](C)NC1=O)[C@@H](C)O [compound 123] (Ac-LTF[R8]AYWAQL[S5]SVG-NH2; staple 4-11)
A: −2

Q: I'd like to know its 6.25 uM % Lysed cells (1 h LDH). The molecule in question is CC(=O)N[C@@H](CC(C)C)C(=O)N[C@H](C(=O)N[C@@H](Cc1ccccc1)C(=O)N[C@]1(C)CCCCCCC=CCCC[C@@](C)(C(=O)N[C@@H](C)C(=O)N[C@@H](C)C(=O)NC(C)(C)C(=O)N[C@@H](C)C(N)=O)NC(=O)[C@H](CC(C)C)NC(=O)[C@H](CCC(N)=O)NC(=O)[C@H](C)NC(=O)[C@H](Cc2c[nH]c3ccccc23)NC(=O)[C@H](Cc2ccc(O)cc2)NC(=O)[C@H](C)NC1=O)[C@@H](C)O (single isomer, unassigned)
A: 6

Q: I'd like to know its 6.25 uM % Lysed cells (1 h LDH). The molecule in question is CC(=O)N[C@@H](CC(C)C)C(=O)N[C@H](C(=O)N[C@@H](Cc1ccccc1)C(=O)N[C@]1(C)CCCCCCC=CCCC[C@@](C)(C(=O)N[C@@H](CO)C(=O)N[C@@H](C)C(=O)N[C@@H](C)C(N)=O)NC(=O)[C@H](C2CCCC2)NC(=O)[C@H](CCC(N)=O)NC(=O)[C@H](C)NC(=O)[C@H](Cc2c[nH]c3ccccc23)NC(=O)[C@H](Cc2ccc(O)cc2)NC(=O)[C@H](CCC(=O)O)NC1=O)[C@@H](C)O (single isomer, unassigned) [compound 149]
A: 6

Q: I'd like to know its 6.25 uM % Lysed cells (1 h LDH). The molecule in question is CC(=O)N[C@@H](CC(C)C)C(=O)N[C@H](C(=O)N[C@@H](Cc1ccccc1)C(=O)N[C@]1(C)CCCCCC/C=C/CCC[C@@](C)(C(=O)N[C@@H](CO)C(=O)N[C@@H](C)C(=O)N[C@@H](C)C(N)=O)NC(=O)[C@H](CCC(C)C)NC(=O)[C@H](CCC(N)=O)NC(=O)[C@H](C)NC(=O)[C@H](Cc2c[nH]c3ccccc23)NC(=O)[C@H](Cc2ccc(O)cc2)NC(=O)[C@H](C)NC1=O)[C@@H](C)O [compound 115] (Ac-LTF[R8]AYWAQ[hLeu][S5]SAA-NH2; staple (E) 4-11)
A: 0
